Tested on: Staphylococcus aureus
Assay: Antibacterial activity against methicillin-resistant Staphylococcus aureus ATCC43300 by broth microdilution method
Assay type: functional
Measured Property: MIC
The number alone won't do; follow it with the unit.

Smiles Representation | Study Target | MIC
CC[C@H]1OC(=O)[C@H](C)[C@@H](OC(=O)NNC(=O)Cn2cc(-c3cccc(F)c3)nn2)[C@H](C)[C@@H](O[C@@H]2O[C@H](C)C[C@H](N(C)C)[C@H]2O)[C@](C)(O)C[C@@H](C)CN(C)[C@H](C)[C@H]2OC(=O)O[C@@]21C | Staphylococcus aureus | 256 µg/mL

Task: Which MIC is reported for this compound? CC[C@H]1OC(=O)[C@H](C)[C@@H](OC(=O)NNC(=O)Cn2cc(-c3ccc(C(C)(C)C)cc3)nn2)[C@H](C)[C@@H](O[C@@H]2O[C@H](C)C[C@H](N(C)C)[C@H]2O)[C@](C)(O)C[C@@H](C)CN(C)[C@H](C)[C@H]2OC(=O)O[C@@]21C
Result: 32 µg/mL

---

Assay: Ratio of MBC for bactericidal activity against methicillin-resistant Staphylococcus aureus ATCC43300 to MIC for antibacterial activity against methicillin-resistant Staphylococcus aureus ATCC43300 by broth microdilution method
Assay type: functional
Readings of Ratio for the listed molecules

Smiles Representation | Experimental Value
CC[C@H]1OC(=O)[C@H](C)[C@@H](OC(=O)NNC(=O)Cn2cc(-c3ccc(-c4ccccc4)cc3)nn2)[C@H](C)[C@@H](O[C@@H]2O[C@H](C)C[C@H](N(C)C)[C@H]2O)[C@](C)(O)C[C@@H](C)CN(C)[C@H](C)[C@H]2OC(=O)O[C@@]21C | >8
CCCCCc1ccc(-c2cn(CC(=O)NNC(=O)O[C@H]3[C@H](C)[C@@H](O[C@@H]4O[C@H](C)C[C@H](N(C)C)[C@H]4O)[C@](C)(O)C[C@@H](C)CN(C)[C@H](C)[C@H]4OC(=O)O[C@]4(C)[C@@H](CC)OC(=O)[C@@H]3C)nn2)cc1 | 8
CC[C@H]1OC(=O)[C@H](C)[C@@H](OC(=O)NNC(=O)Cn2cc(-c3ccc(C(C)(C)C)cc3)nn2)[C@H](C)[C@@H](O[C@@H]2O[C@H](C)C[C@H](N(C)C)[C@H]2O)[C@](C)(O)C[C@@H](C)CN(C)[C@H](C)[C@H]2OC(=O)O[C@@]21C | >8

Next molecule, Ratio to be filled in.
Task: Which Ratio is reported for this molecule? CCCCc1ccc(-c2cn(CC(=O)NNC(=O)O[C@H]3[C@H](C)[C@@H](O[C@@H]4O[C@H](C)C[C@H](N(C)C)[C@H]4O)[C@](C)(O)C[C@@H](C)CN(C)[C@H](C)[C@H]4OC(=O)O[C@]4(C)[C@@H](CC)OC(=O)[C@@H]3C)nn2)cc1
Result: >8

---

Test system: Klebsiella pneumoniae
Assay: Antibacterial activity against Klebsiella pneumoniae ATCC10031 by broth microdilution method
Type: functional
Readings of MIC for the listed compounds
Hi! Could you send only the number? It should be in µg/mL, unit omitted.

// solved cases for MIC follow
Smiles Representation | Unit Label | MIC
CC[C@H]1OC(=O)[C@H](C)[C@@H](OC(=O)NNC(=O)Cn2cc(-c3ccc(C(C)(C)C)cc3)nn2)[C@H](C)[C@@H](O[C@@H]2O[C@H](C)C[C@H](N(C)C)[C@H]2O)[C@](C)(O)C[C@@H](C)CN(C)[C@H](C)[C@H]2OC(=O)O[C@@]21C | µg/mL | 16
CC[C@H]1OC(=O)[C@H](C)[C@@H](OC(=O)NNC(=O)Cn2cc(-c3ccccc3)nn2)[C@H](C)[C@@H](O[C@@H]2O[C@H](C)C[C@H](N(C)C)[C@H]2O)[C@](C)(O)C[C@@H](C)CN(C)[C@H](C)[C@H]2OC(=O)O[C@@]21C | µg/mL | 32
CC[C@H]1OC(=O)[C@H](C)[C@@H](OC(=O)NNC(=O)Cn2cc(-c3ccc(F)cc3)nn2)[C@H](C)[C@@H](O[C@@H]2O[C@H](C)C[C@H](N(C)C)[C@H]2O)[C@](C)(O)C[C@@H](C)CN(C)[C@H](C)[C@H]2OC(=O)O[C@@]21C | µg/mL | 64
CCc1ccc(-c2cn(CC(=O)NNC(=O)O[C@H]3[C@H](C)[C@@H](O[C@@H]4O[C@H](C)C[C@H](N(C)C)[C@H]4O)[C@](C)(O)C[C@@H](C)CN(C)[C@H](C)[C@H]4OC(=O)O[C@]4(C)[C@@H](CC)OC(=O)[C@@H]3C)nn2)cc1 | µg/mL | 16
CC[C@H]1OC(=O)[C@H](C)[C@@H](OC(=O)NNC(=O)Cn2cc(-c3cccc(Br)c3)nn2)[C@H](C)[C@@H](O[C@@H]2O[C@H](C)C[C@H](N(C)C)[C@H]2O)[C@](C)(O)C[C@@H](C)CN(C)[C@H](C)[C@H]2OC(=O)O[C@@]21C | µg/mL | 32
CC[C@H]1OC(=O)[C@H](C)[C@@H](OC(=O)NNC(=O)Cn2cc(-c3ccccc3OC)nn2)[C@H](C)[C@@H](O[C@@H]2O[C@H](C)C[C@H](N(C)C)[C@H]2O)[C@](C)(O)C[C@@H](C)CN(C)[C@H](C)[C@H]2OC(=O)O[C@@]21C | µg/mL | 64

Task: Record CC[C@H]1OC(=O)[C@H](C)[C@@H](OC(=O)NNC(=O)Cn2cc(-c3cccc(N)c3)nn2)[C@H](C)[C@@H](O[C@@H]2O[C@H](C)C[C@H](N(C)C)[C@H]2O)[C@](C)(O)C[C@@H](C)CN(C)[C@H](C)[C@H]2OC(=O)O[C@@]21C : what is its MIC with Klebsiella pneumoniae?
Result: 128

Task: Now this one: CCCOc1ccc(-c2cn(CC(=O)NNC(=O)O[C@H]3[C@H](C)[C@@H](O[C@@H]4O[C@H](C)C[C@H](N(C)C)[C@H]4O)[C@](C)(O)C[C@@H](C)CN(C)[C@H](C)[C@H]4OC(=O)O[C@]4(C)[C@@H](CC)OC(=O)[C@@H]3C)nn2)cc1
Result: 32

Task: Now this one: CC[C@H]1OC(=O)[C@H](C)[C@@H](OC(=O)NNC(=O)Cn2cc(-c3ccccc3Cl)nn2)[C@H](C)[C@@H](O[C@@H]2O[C@H](C)C[C@H](N(C)C)[C@H]2O)[C@](C)(O)C[C@@H](C)CN(C)[C@H](C)[C@H]2OC(=O)O[C@@]21C
Result: 32

---

Test system: Staphylococcus aureus
Assay: Antibacterial activity against methicillin-resistant Staphylococcus aureus ATCC43300 by broth microdilution method
Assay type: functional
Measured Property: MIC (µg/mL)
Hi! Could you send only the number? It should be in µg/mL, unit omitted.

Smiles Representation | MIC [µg/mL]
CCCOc1ccc(-c2cn(CC(=O)NNC(=O)O[C@H]3[C@H](C)[C@@H](O[C@@H]4O[C@H](C)C[C@H](N(C)C)[C@H]4O)[C@](C)(O)C[C@@H](C)CN(C)[C@H](C)[C@H]4OC(=O)O[C@]4(C)[C@@H](CC)OC(=O)[C@@H]3C)nn2)cc1 | 64

Task: Which MIC is reported for this molecule? CCOc1ccc(-c2cn(CC(=O)NNC(=O)O[C@H]3[C@H](C)[C@@H](O[C@@H]4O[C@H](C)C[C@H](N(C)C)[C@H]4O)[C@](C)(O)C[C@@H](C)CN(C)[C@H](C)[C@H]4OC(=O)O[C@]4(C)[C@@H](CC)OC(=O)[C@@H]3C)nn2)cc1
Result: 128

Task: Now this one: CC[C@H]1OC(=O)[C@H](C)[C@@H](OC(=O)NNC(=O)Cn2cc(-c3ccccc3)nn2)[C@H](C)[C@@H](O[C@@H]2O[C@H](C)C[C@H](N(C)C)[C@H]2O)[C@](C)(O)C[C@@H](C)CN(C)[C@H](C)[C@H]2OC(=O)O[C@@]21C
Result: 256

Task: Now this one: CCCc1ccc(-c2cn(CC(=O)NNC(=O)O[C@H]3[C@H](C)[C@@H](O[C@@H]4O[C@H](C)C[C@H](N(C)C)[C@H]4O)[C@](C)(O)C[C@@H](C)CN(C)[C@H](C)[C@H]4OC(=O)O[C@]4(C)[C@@H](CC)OC(=O)[C@@H]3C)nn2)cc1
Result: 64

Task: Now this one: CC[C@H]1OC(=O)[C@H](C)[C@@H](OC(=O)NNC(=O)Cn2cc(-c3cccc(Br)c3)nn2)[C@H](C)[C@@H](O[C@@H]2O[C@H](C)C[C@H](N(C)C)[C@H]2O)[C@](C)(O)C[C@@H](C)CN(C)[C@H](C)[C@H]2OC(=O)O[C@@]21C
Result: 128

Task: Now this one: CC[C@H]1OC(=O)[C@H](C)[C@@H](OC(=O)NNC(=O)Cn2cc(-c3ccc(-c4ccccc4)cc3)nn2)[C@H](C)[C@@H](O[C@@H]2O[C@H](C)C[C@H](N(C)C)[C@H]2O)[C@](C)(O)C[C@@H](C)CN(C)[C@H](C)[C@H]2OC(=O)O[C@@]21C
Result: 32

Task: Now this one: CC[C@H]1OC(=O)[C@H](C)[C@@H](OC(=O)NNC(=O)Cn2cc(-c3ccc(F)cc3)nn2)[C@H](C)[C@@H](O[C@@H]2O[C@H](C)C[C@H](N(C)C)[C@H]2O)[C@](C)(O)C[C@@H](C)CN(C)[C@H](C)[C@H]2OC(=O)O[C@@]21C
Result: 256
